Catalogue of Binding strength to T2 cells, Ratio to FIB-1 (fold (ratio to FIB-1)) values
Biological target: syndecan present on the cell surface of T2 cells (alveolar type II epithelial cells)
Test: T2 cell adhesion to immobilized peptides, competitive inhibition by free peptides (FIGS. 8 and 9)
The reply should be a number, written without any unit.

Asked: For KPRLQFSLDIQT [A3G72 (Lys-Pro-Arg-Leu-Gln-Phe-Ser-Leu-Asp-Ile-Gln-Thr)] , what is its reported Binding strength to T2 cells, Ratio to FIB-1 (fold (ratio to FIB-1))?
Given back: 10

Asked: Given the binder TLFLAHGRLVFM [A4G82 (Thr-Leu-Phe-Leu-Ala-His-Gly-Arg-Leu-Val-Phe-Met)] , what is its reported Binding strength to T2 cells, Ratio to FIB-1 (fold (ratio to FIB-1))?
Given back: 10

Asked: So what does the record say about Binding strength to T2 cells, Ratio to FIB-1 (fold (ratio to FIB-1)) for KNSFMALYLSKG [hA3G75 (Lys-Asn-Ser-Phe-Met-Ala-Leu-Tyr-Leu-Ser-Lys-Gly)] ?
Given back: 2

Asked: State the recorded Binding strength to T2 cells, Ratio to FIB-1 (fold (ratio to FIB-1)) for this entry: RKRLQVQLSIRT [AG73 (Arg-Lys-Arg-Leu-Gln-Val-Gln-Leu-Ser-Ile-Arg-Thr)]
Given back: 100
